Data origin: paper PMC12000874

Molecular target: RNAP core (E; alpha2, beta, beta', omega);SigB (sigma B);RbpA (Mycobacterium …, UniProt P9WGZ1;P9WGY9;P9WGY7;P9WGY5;P9WGI5;P9WHJ5 1-347;1-1178;1-1316;1-110;1-323;1-111, ||)
Assay: microfluidic diffusional sizing; apparent; RbpA; no Mg2+
Settings: protein: recombinant;recombinant;recombinant; tags: C-terminal 6xHis on rpoC;6xHis;6xHis; chain copies: 2;1;1;1;1;1; label: 5' fluorescein (MDS); single strand
reported.property: Kd

Kd reported for this binder TGCGTATAATGTGTGGA (ssDNA) [-10 ssDNA (17-mer, lacUV5 nontemplate, TATAAT)] : ~34 nM
